Reported log10 of EC50 is given for each of the following molecules.
- testedOn: CLK3 kinase (Homo sapiens)
- testSummary: CLK3 kinase activity assay (Z-lyte FRET)
- conditions: Z-lyte Ser/Thr 18 peptide, 156 μM ATP, 1 h at room temperature
// do not treat as linear: log10 of EC50, unit nM

>>> df
                                   molecule  numericvalue
0  Cn1cc(-c2ccc3cnc(NC(=O)c4ccc5nccnc5c4)cc3n2)cn1 [compound 608]          2.15

Item: CC(C)Nc1cncc(-c2ccc3[nH]nc(-c4cc5c(-c6cccnc6)ccnc5[nH]4)c3n2)c1 [compound 364] | log10 of EC50: 2.14

Item: CCCCC(=O)Nc1cncc(-c2cc3c(-c4cc5c(-c6cc(F)cc(CNS(C)(=O)=O)c6)nccc5[nH]4)n[nH]c3cn2)c1 [compound 521] | log10 of EC50: 2.89

Item: CN1CCC(Oc2ccc(NC(=O)c3n[nH]c4ccc(-c5ccc(N)nc5)cc34)cc2)CC1 [compound 66] | log10 of EC50: 1.69

Item: O=C(Nc1cccnc1)c1n[nH]c2cnc(-c3cncc(CN4CCCCC4)c3)cc12 [compound 118] | log10 of EC50: 2.78

Item: CC(C)CC(=O)Nc1cncc(-c2ccc3[nH]nc(-c4nc5c(-c6cccnc6)cncc5[nH]4)c3c2)c1 [compound 189] | log10 of EC50: 1.41

Item: CC(C)CC(=O)Nc1cncc(-c2ccc3[nH]nc(-c4cc5c(-c6ccccc6F)nccc5[nH]4)c3n2)c1 [compound 326] | log10 of EC50: 2.16

---

- testedOn: CLK2 kinase (Homo sapiens, UniProt P49760)
- Sequence (P49760 whole entry): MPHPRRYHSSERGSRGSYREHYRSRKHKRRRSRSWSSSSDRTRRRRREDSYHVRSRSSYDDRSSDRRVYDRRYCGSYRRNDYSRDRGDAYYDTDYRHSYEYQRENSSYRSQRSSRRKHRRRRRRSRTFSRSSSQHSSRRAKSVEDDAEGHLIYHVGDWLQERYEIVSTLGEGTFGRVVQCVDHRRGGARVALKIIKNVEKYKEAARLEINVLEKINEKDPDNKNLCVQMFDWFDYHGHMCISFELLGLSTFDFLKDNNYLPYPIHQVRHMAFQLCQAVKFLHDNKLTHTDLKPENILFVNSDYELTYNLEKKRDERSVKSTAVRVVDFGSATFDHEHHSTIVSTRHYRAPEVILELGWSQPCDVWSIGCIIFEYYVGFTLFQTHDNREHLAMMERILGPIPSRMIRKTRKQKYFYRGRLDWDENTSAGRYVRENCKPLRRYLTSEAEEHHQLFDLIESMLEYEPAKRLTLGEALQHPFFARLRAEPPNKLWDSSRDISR
- testSummary: CLK2 kinase activity assay (Z-lyte FRET)
- conditions: Z-lyte Ser/Thr 6 peptide, 60 μM ATP, 1 h at room temperature
readout: pEC50
Just so you know, pEC50 here is -log10 of the concentration in molar units; reply with that number alone.

The cases that follow already have their pEC50 on record.
>>> df
                                  structure  numericvalue
0  Nc1cncc(-c2cnc3[nH]nc(-c4nc5c(-c6ccccc6F)ccnc5[nH]4)c3c2)c1          7.48
1  O=C(Nc1c[nH]nc1C(=O)Nc1ccc(N2CCC(F)(F)C2)nc1)c1cncc(OC2CCNCC2)c1          8.22
2  Cc1ncc(-c2cnc3[nH]nc(-c4cc5c(-c6ccncc6)cncc5[nH]4)c3c2)n1C          8.52
3  O=C(Nc1cncc(-c2cnc3[nH]nc(-c4cc5c(-c6ccncc6)cncc5[nH]4)c3c2)c1)C1CCC1          8.52
4  FC1(F)CCN(Cc2cncc(-c3ccc4[nH]nc(-c5cc6cccnc6[nH]5)c4n3)c2)C1          8.70

GET /values?item= c1csc(-c2cncc3[nH]c(-c4n[nH]c5ncc(-c6cncc(CNCC7CCCC7)c6)cc45)nc23)c1 &system= CLK2 kinase (Homo sapiens, UniProt P49760) returns pEC50: 8.40

GET /values?item= CC(C)CC(=O)Nc1cncc(-c2ccc3[nH]nc(-c4nc5c(-c6cccc(F)c6)ccnc5[nH]4)c3c2)c1 &system= CLK2 kinase (Homo sapiens, UniProt P49760) returns pEC50: 7.43

---

Reported pEC50 is given for each of the following compounds.
- testedOn: CLK3 kinase (Homo sapiens)
- testSummary: CLK3 kinase activity assay (Z-lyte FRET)
- conditions: Z-lyte Ser/Thr 18 peptide, 156 μM ATP, 1 h at room temperature
Just so you know, pEC50 here is -log10 of the concentration in molar units; reply with that number alone.

The cases that follow already have their pEC50 on record.
In [3]: df
Out[3]:
                                  structure  readout  numericvalue
0  CC(C)Nc1cncc(-c2cnc3[nH]nc(-c4cc5c(-c6ccccc6F)nccc5[nH]4)c3c2)c1    pEC50          6.71
1  CN1CCN(c2ccc(NC(=O)c3n[nH]c4ccc(-c5cncc(CN6CCC(F)(F)C6)c5)cc34)cn2)CC1    pEC50          7.96
2  CC(C)C(=O)Nc1cncc(-c2ccc3[nH]nc(-c4cc5c(-c6cccnc6)cncc5[nH]4)c3c2)c1    pEC50          7.43

Pending compound:
Item: CC(C)CC(=O)Nc1cncc(-c2cc3c(-c4cc5cccnc5[nH]4)n[nH]c3cn2)c1 | pEC50: 5.21

---

- testedOn: CLK2 kinase (Homo sapiens, UniProt P49760)
- testSummary: CLK2 kinase activity assay (Z-lyte FRET);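 also: FRET read-out as coumarin to fluorescein emission ratio, unphosphorylated peptide as 0% and phosphorylated peptide as 100% controls, duplicate reactions, non-linear regression fit of dose-response curves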
- conditions: Z-lyte Ser/Thr 6 peptide, 60 μM ATP, 1 h at room temperature
Kindly apply the following: TRUE if EC50 is less than 5 nM, FALSE in every other case.

                                   molecule  categorylabel
0  CC(C)N1CCC(n2cc(C(=O)Nc3cc4cc(-c5cn(C)nn5)ccc4cn3)cn2)CC1 [compound 579]           TRUE
1  CC(C)OCCCNC(=O)c1n[nH]c2ccc(-c3cccnc3)cc12 [compound 58]          FALSE
2  Cc1cn(-c2ccnc3[nH]c(-c4n[nH]c5ccc(-c6cncc(NC(=O)C7CCC7)c6)nc45)nc23)cn1 [compound 228]           TRUE
3  O=C(Nc1cncc(-c2cnc3[nH]nc(-c4nc5c(-c6ccoc6)cncc5[nH]4)c3c2)c1)c1ccccc1 [compound 235]          FALSE

Here's the next entry for you.
Problem: For the molecule CC(C)NC(=O)c1n[nH]c2ccc(-c3cncc(CN4CCC(F)(F)CC4)c3)cc12 [compound 75] , is EC50 under 5 nM?
FALSE

---

- System: primary human mesenchymal stem cells (hMSCs)
- testSummary: Chondrogenesis screening using primary human mesenchymal stem cells
- Assay type: cell-based
- conditions: Homo sapiens, Mesenchymal stem cells, hMSC chondrogenesis; concentration required to induce 50% levels of chondrogenesis with TGF-β3 as positive control; read-out: Conc (nM) of 50% TGF-β3 activity
Reported EC50 is given for each of the following molecules.
# unit: nM | format: bare number

>>> print(df.to_string())
                                   molecule  endpointunit  numericvalue
0  FC1(F)CCN(Cc2cncc(-c3ccc4[nH]nc(-c5cc6cnccc6[nH]5)c4n3)c2)C1            nM           300
1  CCCCC(=O)Nc1cncc(-c2ccc3[nH]nc(-c4cc5c(N6CCCCC6)cccc5[nH]4)c3n2)c1            nM           100
2  CCC(=O)Nc1cncc(-c2cc3c(-c4cc5c(N6CCN(C)CC6)nccc5[nH]4)n[nH]c3cn2)c1            nM            30
3  CC(C)CC(=O)Nc1cncc(-c2ccc3[nH]nc(-c4nc5c(-c6ccc(Cl)s6)cncc5[nH]4)c3n2)c1            nM            10
4  CC(C)Nc1cncc(-c2cnc3[nH]nc(-c4cc5c(-c6ccccc6F)nccc5[nH]4)c3c2)c1            nM            10

Item: CC(C)Nc1cncc(-c2cnc3[nH]nc(-c4cc5c(-c6ccccc6F)ccnc5[nH]4)c3c2)c1 | EC50: 10

Item: Cc1ccncc1-c1cc2c(-c3nc4c(-c5cc(F)cc(CNS(C)(=O)=O)c5)ccnc4[nH]3)n[nH]c2cn1 | EC50: 30

Item: Nc1cncc(-c2cc3c(-c4cc5c(-c6ccccc6F)nccc5[nH]4)n[nH]c3cn2)c1 | EC50: 10

Item: Cc1n[nH]c2ccc(-c3cncc(OC4CCNCC4(F)F)n3)cc12 (stereo not drawn) | EC50: 300

---

- testedOn: CLK3 kinase (Homo sapiens, UniProt P49761)
- Sequence (P49761 whole entry): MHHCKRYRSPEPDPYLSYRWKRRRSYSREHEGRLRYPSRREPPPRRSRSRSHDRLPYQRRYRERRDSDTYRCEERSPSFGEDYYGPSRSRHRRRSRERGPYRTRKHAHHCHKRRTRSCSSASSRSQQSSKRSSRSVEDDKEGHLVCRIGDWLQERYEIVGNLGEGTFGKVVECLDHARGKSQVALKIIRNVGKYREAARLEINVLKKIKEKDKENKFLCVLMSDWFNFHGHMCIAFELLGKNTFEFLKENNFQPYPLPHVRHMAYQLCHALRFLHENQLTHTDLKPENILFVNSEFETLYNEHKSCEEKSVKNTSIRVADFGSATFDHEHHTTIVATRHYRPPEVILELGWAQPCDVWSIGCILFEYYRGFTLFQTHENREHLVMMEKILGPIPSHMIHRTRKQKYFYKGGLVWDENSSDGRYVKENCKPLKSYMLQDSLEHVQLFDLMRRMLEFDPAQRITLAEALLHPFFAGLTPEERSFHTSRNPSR
- testSummary: CLK3 kinase activity assay (Z-lyte FRET);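 also: kinase activity read as coumarin/fluorescein emission ratio by FRET, unphosphorylated peptide as 0% and phosphorylated peptide as 100% control, values from non-linear regression of dose-response curves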
- conditions: Z-lyte Ser/Thr 18 peptide, 156 μM ATP, 1 h at room temperature
Kindly apply the following: TRUE if EC50 is less than 0.4 µM, FALSE in every other case.

>>> df
                                  structure  categorylabel
0  O=C(Nc1cc2cc(-c3cncc(CN4CCC(O)CC4)c3)ccc2cn1)c1ccc(F)cc1           TRUE
1  O=C(Nc1cncc(-c2cnc3[nH]nc(-c4nc5c(-c6cccnc6)cncc5[nH]4)c3c2)c1)C1CCC1           TRUE
2  CC(C)Nc1cncc(-c2ccc3[nH]nc(-c4cc5c(-c6cccnc6)cccc5[nH]4)c3c2)c1          FALSE
3  Cc1ccc(-c2cncc3[nH]c(-c4n[nH]c5ccc(-c6cncc(N)c6)nc45)nc23)s1           TRUE
4  Cc1n[nH]c2ccc(-c3cncc(OC[C@H](N)Cc4ccccc4)n3)cc12           TRUE
5  FC1(F)CCN(Cc2cncc(-c3ccc4[nH]nc(-c5cc6c(-c7ccccn7)cccc6[nH]5)c4n3)c2)C1           TRUE

Here's the next entry for you.
Problem: For the compound Fc1ccc(-c2nccc3[nH]c(-c4n[nH]c5cnc(-c6cncc(CN7CCC(F)(F)C7)c6)cc45)cc23)cc1 , is EC50 under 0.4 µM?
FALSE
